Recorded pKd values for a group of binders are listed next.
Target or system: T1, BCL-2-G101V (human, UniProt P10415 1-34; Q07817 33-48; P10415 92-207, G101V, biotin (biotinylated for SPR; site not stated))
T1 construct: BCL-2, human, residues 1-34 of the chimera, as m6; BCL-XL, human, residues 33-48, in place of BCL-2 residues 35-50; BCL-2, human, residues 92-207; Chimera m6 with the venetoclax-resistant clinical mutation G101V; also called BCL-2 G101V mutant; source: E. coli BL21 (DE3), purified (Ni-NTA, Superdex 75, RESOURCE Q, Superdex 200)
T1 sequence (P10415 other isoform, or with tags, fused parts or gaps G101V | G101V | G101V G101V): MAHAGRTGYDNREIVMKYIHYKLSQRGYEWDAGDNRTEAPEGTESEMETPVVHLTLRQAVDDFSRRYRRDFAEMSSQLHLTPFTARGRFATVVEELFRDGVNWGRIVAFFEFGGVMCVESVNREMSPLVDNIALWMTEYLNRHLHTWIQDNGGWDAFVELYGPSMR
Experimental details: SPR; Biacore T200; biotinylated proteins immobilised on a CAP sensor chip; peptides flowed in multiple cycles (25-12800 nM, depending on the peptides) at 30 uL/min; 10 mM PBS, 50 uM EDTA, 0.05% Tween-20, 25 °C; affinity fitting, 1:1 binding model
Test settings: both partners purified
pKd: −log10 of the molar value. Positions of bridges follow the written chain, without caps; N, C: chain ends. No end group written: not given here. cADT = 2-aryl-4,5-dihydrothiazole (ADT) linker

- Binder: "CPIRYPWDVEC (linker 1-11 via cADT (inferred), cyclic peptide from the second phage library CPXRYXWDXXC screened against BCL-XL; they agree with P6, V9 and E10 named in the text) [cp3]"
  pKd: 6.18
- Binder: "CPIRYEWDEFC (linker 1-11 via cADT (inferred), cyclic peptide from the second phage library CPXRYXWDXXC screened against BCL-2; they agree with I3, E6, E9 and F10 named in the text) [cp2]"
  pKd: 6.52
